EXPERIMENTAL SYSTEM: Pig IR (pig, UniProt F1SCL0 28-1382)
EXPERIMENT SUMMARY: cell-based or functional assay
Label met when Pig IR phosphorylation [EC 50 nM] mean < 30 nM; otherwise not met.

scl-Fc fusion protein INS022 (Fc fusion) FVNQHLCGSHLVEALELVCGERGFHYTPKTGSYPGGVGIVEQCCTSICSLSQLENYCGGEAEDLQVGQVELGGGPGAGSLQPEGSLQGGPSVFLFPPKPKDTLMISRTPEVTCVVVDVSHEDPEVKFNWYVDGVEVHNAKTKPREEQYNSTYRVVSVLTVLHQDWLNGKEYKCKVSNKALPAPIEKTISKAKGQPREPQVYTLPPSRDELTKNQVSLTCLVKGFYPSDIAVEWESNGQPENNYKTTPPVLDSDGSFFLYSKLTVDKSRWQQGNVFSCSVMHEALHNHYTQKSLSLSPGGGGGSAESKYGPPCPPCPA
met

Please let me know if scl-Fc fusion protein INS008 (Fc fusion) SFVNQHLCGSHLVEALELVCGERGFHYTDKTGSYPGGVGIVEQCCTSICSLEQLENYCGGEAEDLQVGQVELGGGPGAGSLQPEGSLQGGPSVFLFPPKPKDTLMISRTPEVTCVVVDVSHEDPEVKFNWYVDGVEVHNAKTKPREEQYNSTYRVVSVLTVLHQDWLNGKEYKCKVSNKALPAPIEKTISKAKGQPREPQVYTLPPSRDELTKNQVSLTCLVKGFYPSDIAVEWESNGQPENNYKTTPPVLDSDGSFFLYSKLTVDKSRWQQGNVFSCSVMHEALHNHYTQKSLSLSPGGGGGSAESKYGPPCPPCPA shows Pig IR phosphorylation [EC 50 nM] mean below 30 nM.
met

Please let me know if scl-Fc fusion protein INS016 (Fc fusion) FVNQHLCGSHLVEALHLVCGERGFHYTPKTGSYPGGVGIVEQCCTSICSLSQLENYCGGEAEDLQVGQVELGGGPGAGSLQPEGSLQGGPSVFLFPPKPKDTLMISRTPEVTCVVVDVSHEDPEVKFNWYVDGVEVHNAKTKPREEQYNSTYRVVSVLTVLHQDWLNGKEYKCKVSNKALPAPIEKTISKAKGQPREPQVYTLPPSRDELTKNQVSLTCLVKGFYPSDIAVEWESNGQPENNYKTTPPVLDSDGSFFLYSKLTVDKSRWQQGNVFSCSVMHEALHNHYTQKSLSLSPGGGGGSAESKYGPPCPPCPA shows Pig IR phosphorylation [EC 50 nM] mean below 30 nM.
not met

Please let me know if scl-Fc fusion protein INS013 (Fc fusion) FVNQHLCGSHLVEALHLVCGERGFHYTPKTGSYPGGVGIVEQCCTSICSLSQLEDYCGGEAEDLQVGQVELGGGPGAGSLQPEGSLQGGPSVFLFPPKPKDTLMISRTPEVTCVVVDVSHEDPEVKFNWYVDGVEVHNAKTKPREEQYNSTYRVVSVLTVLHQDWLNGKEYKCKVSNKALPAPIEKTISKAKGQPREPQVYTLPPSRDELTKNQVSLTCLVKGFYPSDIAVEWESNGQPENNYKTTPPVLDSDGSFFLYSKLTVDKSRWQQGNVFSCSVMHEALHNHYTQKSLSLSPGGGGGSAESKYGPPCPPCPA shows Pig IR phosphorylation [EC 50 nM] mean below 30 nM.
met
